Tested on: HeLa cells (human cervical carcinoma)
MEASUREMENT DESCRIPTION: MTT cytotoxicity assay, HeLa
Format: cell-based
CONDITION DETAILS: 24 h incubation
Method: The α-lipoic acid (LA) and the functionalized N^∧N-LA ligand were also evaluated for comparison. […] Cell lines and culture conditions […] The cytotoxicity of LA, N^N-LA and complexes synthesized towards various cancer cell lines was determined by MTT assay. […] that, 20 μL of MTT solution (5 mg/mL) was added to each well, and the plates were incubated for an additional 4 h. […] The absorbance at 595 nm was measured using a microplate reader (LabServ K3, Part of Thermo Fisher Scientific, USA). […]
OBSERVABLE: pIC50
Note: pIC50 values are expressed as the negative base-10 logarithm of concentration in M.

pIC50 measured on N.N.[Cl][Pt][Cl] [cis-Pt, cisplatin, reference compound] = 4.75
